Reference source: paper PMC11083479

target: SARS-CoV-2 spike RBD, WT, His-tag (SARS-CoV-2 (WT), UniProt P0DTC2 319-541); assay: BLI; BLI: PBS pH 7.4, 1 mM MgCl2 ([…]; flow cytometry 25 C ([…]
assay-readout: binding result

In [3]: df
Out[3]:
                                     binder  measured_value
0  TCCGGTTAATTTATGCTCTACCCGTCCACCTACCGGA (ssDNA) [MSA1-T3]      no binding
1  RBD-PB6 (XNA, 2'-F-modified RNA) RNA: GGGGCCACCAACGACAUUUGUAAUUCCUGGACCGAUACUUCCGUCAGGACAGAGGUUGAUAUAAAUAGUGCCCAUGGAUCC           binds
2  nCoV-S1-A2 (ssDNA) DNA: AGCAGCACAGAGGTCAGATGGCAGCTAAGCAGGCGGCTCACAAAACCATTCGCATGCGGCCCTATGCGTGCTACCGTGAA      no binding
3  Aptamer-1 (ssDNA) DNA: ATCCAGAGTGACGCAGCATCGAGTGGCTTGTTTGTAATGTAGGGTTCCGGTCGTGGGTTGGACACGGTGGCTTAGT           binds
4  CAACCCATGGTAGGTATTGCTTGGTAGGGATAGTGGGCTTG (ssDNA) [SP6.41]      no binding

Kindly consider the entry below.
Answer with the recorded binding result for the binder listed here: Aptamer-2 (ssDNA) DNA: ATCCAGAGTGACGCAGCAATTACCGATGGCTTGTTTGTAATGTAGGGTTCCGTCGGATTGGACACGGTGGCTTAGT binds
